Overview of recorded WBC for various compounds
Species: Rattus norvegicus
experiment-notes: Open TG-GATES - Regimen: Single
Format: toxicity, organism-based, Sprague-Dawley
Set-up: regimen Single, gender Male, age 6 weeks
measurement-setup: in vivo, po, 1000 mg/kg, 9 h, tissue Blood, route gavage, dose level High
Report the value in x10_2/uL with no unit label.

Consider the reported WBC for these compounds:
- compound: "O=C(O)c1cn(C2CC2)c2cc(N3CCNCC3)c(F)cc2c1=O [CIPROFLOXACIN]"
  value-units: "x10_2/uL"
  readout-value: 94.6
- compound: "O=C(O)c1cc(/N=N/c2ccc(S(=O)(=O)Nc3ccccn3)cc2)ccc1O [SULFASALAZINE]"
  value-units: "x10_2/uL"
  readout-value: 68.2
- compound: "CCc1cc(C(N)=S)ccn1 [ETHIONAMIDE]"
  value-units: "x10_2/uL"
  readout-value: 77.3

API: the following record is the query input.
Find the recorded WBC belonging to Clc1ccccc1CN1CCc2sccc2C1 [TICLOPIDINE] and report it.
61.3

###

Organism: Rattus norvegicus
experiment-notes: Open TG-GATES - Regimen: Single
Format: toxicity, organism-based, Sprague-Dawley
Set-up: regimen Single, gender Male, age 6 weeks
measurement-setup: in vivo, po, 100 mg/kg, 24 h, tissue Plasma, route gavage, dose level Low
Overview of recorded Na for various compounds
Answer format: number, then unit.

- compound: "Clc1ccccc1CN1CCc2sccc2C1 [TICLOPIDINE]"
  Na: "141.6 meq/L"
- compound: "CCc1cc(C(N)=S)ccn1 [ETHIONAMIDE]"
  Na: "141.4 meq/L"
- compound: "C[C@H](CS)C(=O)N1CCC[C@H]1C(=O)O [CAPTOPRIL]"
  Na: "139 meq/L"
- compound: "O=C(O)c1cc(/N=N/c2ccc(S(=O)(=O)Nc3ccccn3)cc2)ccc1O [SULFASALAZINE]"
  Na: "139.8 meq/L"

Find the recorded Na belonging to O=C(O)c1cn(C2CC2)c2cc(N3CCNCC3)c(F)cc2c1=O [CIPROFLOXACIN] and report it.
139.4 meq/L

###

Species: Rattus norvegicus
experiment-notes: Open TG-GATES - Regimen: Single
Format: toxicity, organism-based, Sprague-Dawley
Parameters: regimen Single, gender Male, age 6 weeks
measurement-setup: in vivo, po, 100 mg/kg, 6 h, tissue Blood, route gavage, dose level Low
Overview of recorded Ret for various molecules

Consider the reported Ret for these molecules:
- molecule: "Clc1ccccc1CN1CCc2sccc2C1 [TICLOPIDINE]"
  Ret: "7.9%"
- molecule: "CCc1cc(C(N)=S)ccn1 [ETHIONAMIDE]"
  Ret: "7.5%"
- molecule: "O=C(O)c1cn(C2CC2)c2cc(N3CCNCC3)c(F)cc2c1=O [CIPROFLOXACIN]"
  Ret: "10.5%"
- molecule: "C[C@H](CS)C(=O)N1CCC[C@H]1C(=O)O [CAPTOPRIL]"
  Ret: "7.9%"

API: the following record is the query input.
Find the recorded Ret belonging to O=C(O)c1cc(/N=N/c2ccc(S(=O)(=O)Nc3ccccn3)cc2)ccc1O [SULFASALAZINE] and report it.
7.2%

###

Overview of recorded ALT for various molecules
Organism: Rattus norvegicus
experiment-notes: Open TG-GATES - Regimen: Single
Type: toxicity, organism-based, Sprague-Dawley
Set-up: regimen Single, gender Male, age 6 weeks
measurement-setup: in vivo, po, 1000 mg/kg, 24 h, tissue Plasma, route gavage, dose level High
Report the value in IU/L with no unit label.

- molecule: "O=C(O)c1cc(/N=N/c2ccc(S(=O)(=O)Nc3ccccn3)cc2)ccc1O"
  value-units: "IU/L"
  ALT: 40.6
- molecule: "O=C(O)c1cn(C2CC2)c2cc(N3CCNCC3)c(F)cc2c1=O"
  value-units: "IU/L"
  ALT: 49
- molecule: "Clc1ccccc1CN1CCc2sccc2C1"
  value-units: "IU/L"
  ALT: 27.8
- molecule: "CCc1cc(C(N)=S)ccn1 [ETHIONAMIDE]"
  value-units: "IU/L"
  ALT: 36.6

API: the following record is the query input.
Find the recorded ALT belonging to `C[C@H](CS)C(=O)N1CCC[C@H]1C(=O)O` and report it.
39.8
